Values compiled from patent US20110028509A1.

tested_on: CXCR3 (Homo sapiens)
Sequence (P49682 1-368): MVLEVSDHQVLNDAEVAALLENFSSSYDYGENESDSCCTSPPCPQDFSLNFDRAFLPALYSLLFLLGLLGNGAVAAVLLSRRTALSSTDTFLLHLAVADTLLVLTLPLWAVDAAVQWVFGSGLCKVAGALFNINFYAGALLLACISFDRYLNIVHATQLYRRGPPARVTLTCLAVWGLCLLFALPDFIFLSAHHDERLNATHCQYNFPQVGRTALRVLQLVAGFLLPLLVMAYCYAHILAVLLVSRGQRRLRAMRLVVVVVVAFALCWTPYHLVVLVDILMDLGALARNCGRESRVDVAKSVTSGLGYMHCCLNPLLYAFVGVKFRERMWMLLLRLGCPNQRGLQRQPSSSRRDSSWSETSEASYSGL
method_notes: CXCR3 Ca2+ mobilization (FLIPR), stable hCXCR3-CHO cell line, I-TAC stimulated
Format: cell-based
Parameters: host or cells: CHO cells stably expressing hCXCR3
particulars: hCXCR3-CHO cells, I-TAC 100 nM stimulated Ca2+ response; read-out: Ca-ITAC

| given_smiles | IC50 (nM) |
| --- | --- |
| CCOc1ccc(S(=O)(=O)N(Cc2ccc(C(=O)NC3(c4cccc(Cl)c4)CC3)cc2)Cc2ccccn2)cc1 | 500 |
| COC(=O)[C@@H](Cc1ccccc1)NC(=O)c1ccc(CN(Cc2ccccn2)S(=O)(=O)c2ccc(Cl)cc2)cc1 | 2000 |
| CS(=O)(=O)CCCS(=O)(=O)NC(=O)c1ccc(CN(Cc2ccccn2)S(=O)(=O)c2ccc(Cl)cc2)cc1 | 1700 |
| CN(C)c1ccc(CNC(=O)c2ccc(CN(Cc3ccccn3)S(=O)(=O)c3ccc(C#N)cc3)cc2)cn1 | 3000 |

====

tested_on: CXCR3 (Homo sapiens, UniProt P49682)
method_notes: Radioligand binding, scintillation proximity assay ([125I]IP-10 or [125I]I-TAC competition) on CHO-CXCR3 cell membranes
Parameters: host or cells: CHO cells stably expressing hCXCR3
particulars: [125I]IP-10, human CXCR3 cell membranes, Cheng-Prusoff; read-out: Binding Ki (μM) IP10
Could you mark each record Criterion met if its Ki falls strictly under 0.2 µM, and Criterion not met if it equals or exceeds it?

| molecule | category |
| --- | --- |
| O=C(NCc1cccc(Cl)c1)c1ccc(CN(Cc2ccccn2)S(=O)(=O)c2ccc(Cl)cc2)cc1 [Example 6] | Criterion met |
| O=C(NCc1cccc(Cl)c1)c1ccc(CN(Cc2ccccc2)S(=O)(=O)c2ccc(Cl)cc2)nc1 [Example 8] | Criterion not met |
| O=C(NC1(c2ccccc2)CC1)c1ccc(CN(Cc2ccccn2)S(=O)(=O)c2ccc(Cl)cc2)cc1 [Example 40] | Criterion met |
| O=C(NCC1CC1)c1ccc(CN(Cc2ccccn2)S(=O)(=O)c2ccc(Cl)cc2)cc1 [Example 5] | Criterion met |
| O=C(NCc1cccs1)c1ccc(CN(Cc2ccccc2)S(=O)(=O)c2ccc(Cl)cc2)cc1 [Example 7] | Criterion not met |
| O=C(NC1(c2ccccc2)CC1)c1ccc(CN(Cc2ccccc2)S(=O)(=O)c2ccc(Cl)cc2)cc1 [Example 10] | Criterion met |
| O=C(NS(=O)(=O)c1cccc(Cl)c1)c1ccc(CN(Cc2ccccc2)S(=O)(=O)c2ccc(Cl)cc2)cc1 [Example 12] | Criterion not met |
| N#Cc1ccc(S(=O)(=O)N(Cc2ccc(C(=O)NC3(c4ccccc4)CC3)cc2)Cc2ccccn2)cc1 [Example 44] | Criterion met |
| O=C(NS(=O)(=O)c1cccc(Cl)c1)c1ccc(CN(Cc2ccccn2)S(=O)(=O)c2ccc(Cl)cc2)cc1 [Example 13] | Criterion met |
| O=C(NS(=O)(=O)Cc1ccccc1)c1ccc(CN(Cc2ccccn2)S(=O)(=O)c2ccc(Cl)cc2)cc1 [Example 11] | Criterion met |
| O=S(=O)(c1ccc(Cl)cc1)N(Cc1ccc(-c2nnn[nH]2)cc1)Cc1ccccn1 [Example 16] | Criterion met |
| CCOc1ccc(S(=O)(=O)N(Cc2ccc(-c3nnn[nH]3)cc2)Cc2ccccn2)cc1 [Example 42] | Criterion met |
| CCOc1ccc(S(=O)(=O)N(Cc2ccccc2)Cc2ccc(C(=O)NCC3CC3)cc2)cc1 [Example 18] | Criterion not met |

====

tested_on: UniProtKB P49682
method_notes: CXCR3 Ca2+ mobilization (FLIPR), stable hCXCR3-CHO cell line, I-TAC stimulated
Format: cell-based
Parameters: host or cells: CHO cells stably expressing hCXCR3
particulars: hCXCR3-CHO cells, I-TAC 100 nM stimulated Ca2+ response; read-out: Ca-ITAC
Label TRUE when IC50 < 5 µM; otherwise FALSE.

| compound | tested_on | category |
| --- | --- | --- |
| CCS(=O)(=O)NC(=O)c1ccc(CN(Cc2ccccn2)S(=O)(=O)c2ccc(Cl)cc2)cc1 [Example 55] | UniProtKB P49682 | FALSE |
| N#Cc1cccc(CN(Cc2ccccn2)S(=O)(=O)c2ccc(Cl)cc2)c1 [Example 195] | UniProtKB P49682 | TRUE |
| N#Cc1ccc(CN(CCCc2ccccc2)S(=O)(=O)c2ccc(Cl)cc2)cc1 [Example 198] | UniProtKB P49682 | TRUE |
| N#Cc1ccc(CN(C(=O)c2ccccn2)S(=O)(=O)c2ccc(Cl)cc2)cc1 [Example 279] | UniProtKB P49682 | FALSE |
| CC(C)(C)OC(=O)N1C[C@@H]2[C@H](C1)[C@H]2NC(=O)c1ccc(CN(Cc2ccccn2)S(=O)(=O)c2ccc(C#N)cc2)cc1 [Example 96] | UniProtKB P49682 | TRUE |
| CCOc1ccc(S(=O)(=O)N(Cc2ccc(-c3nnn[nH]3)cc2)Cc2ccccn2)cc1 [Example 42] | UniProtKB P49682 | TRUE |
| O=C(N[C@@H](Cc1ccc(O)cc1)C(=O)O)c1ccc(CN(Cc2ccccn2)S(=O)(=O)c2ccc(Cl)cc2)cc1 [Example 154] | UniProtKB P49682 | TRUE |
| N#Cc1ccc(S(=O)(=O)N(Cc2ccc(NC(=O)Cc3nnn[nH]3)cc2)Cc2ccccn2)cc1 [Example 300] | UniProtKB P49682 | FALSE |
| O=C(NC(Cc1ccc(O)cc1)C(=O)O)c1ccc(CN(Cc2ccccn2)S(=O)(=O)c2ccc(Cl)cc2)cc1 (stereo not drawn) [Example 354] | UniProtKB P49682 | FALSE |
| O=S(=O)(c1ccc(Cl)cc1)N(Cc1ccc(-c2nnn[nH]2)cc1)Cc1nccc2ccccc12 [Example 74] | UniProtKB P49682 | TRUE |
| N#Cc1ccc(C(=O)N(Cc2ccccn2)S(=O)(=O)c2ccc(Cl)cc2)cc1 [Example 281] | UniProtKB P49682 | FALSE |
| CCOc1ccc(S(=O)(=O)N(Cc2ccc(C(=O)N[C@H]3[C@@H]4CN(C(C)=O)C[C@@H]43)cc2)Cc2ccccn2)cc1 [Example 107] | UniProtKB P49682 | FALSE |
| CCOc1ccc(S(=O)(=O)N(Cc2ccc(C(=O)NC3(c4ccccc4)CC3)cc2)Cc2ccccn2)cc1 [Example 88] | UniProtKB P49682 | TRUE |
| CC(c1ccc(-c2nnn[nH]2)cc1)N(Cc1ccccc1)S(=O)(=O)c1ccc(Cl)cc1 (stereo not drawn) [Example 171] | UniProtKB P49682 | TRUE |

====

tested_on: CXCR3 (Homo sapiens, UniProt P49682)
method_notes: CXCR3 Ca2+ mobilization (FLIPR), stable hCXCR3-CHO cell line, I-TAC stimulated
Format: cell-based
Design: host or cells: CHO cells stably expressing hCXCR3
particulars: hCXCR3-CHO cells, I-TAC 100 nM stimulated Ca2+ response; read-out: Ca-ITAC
pIC50: −log10 of the molar value.

| given_smiles | tested_on | pIC50 |
| --- | --- | --- |
| O=C(O)c1ccc(CNC(=O)c2ccc(CN(Cc3ccccn3)S(=O)(=O)c3ccc(Cl)cc3)cc2)cc1 | CXCR3 (Homo sapiens, UniProt P49682) | 5.70 |
| O=C(N[C@H](C(=O)O)c1ccccc1)c1ccc(CN(Cc2ccccn2)S(=O)(=O)c2ccc(Cl)cc2)cc1 | CXCR3 (Homo sapiens, UniProt P49682) | 6.12 |
| CCOc1ccc(S(=O)(=O)N(Cc2ccc(C(=O)NC3(c4ccccc4)CC3)cc2)Cc2cccnc2)cc1 | CXCR3 (Homo sapiens, UniProt P49682) | 7.52 |
| O=C(NS(=O)(=O)c1cccc(F)c1)c1ccc(CN(Cc2ccccn2)S(=O)(=O)c2ccc(Cl)cc2)cc1 | CXCR3 (Homo sapiens, UniProt P49682) | 6.88 |

====

tested_on: CXCR3 (Homo sapiens)
Sequence (P49682 1-368): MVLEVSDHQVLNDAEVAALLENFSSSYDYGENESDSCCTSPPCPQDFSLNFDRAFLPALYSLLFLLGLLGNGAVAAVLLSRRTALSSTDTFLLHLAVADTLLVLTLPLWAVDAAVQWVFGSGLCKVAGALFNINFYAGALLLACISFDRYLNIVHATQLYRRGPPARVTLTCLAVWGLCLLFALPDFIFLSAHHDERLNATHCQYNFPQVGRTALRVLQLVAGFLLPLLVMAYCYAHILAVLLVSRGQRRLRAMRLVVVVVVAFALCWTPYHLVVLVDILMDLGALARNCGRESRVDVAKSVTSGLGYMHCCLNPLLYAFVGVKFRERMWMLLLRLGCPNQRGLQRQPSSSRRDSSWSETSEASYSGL
method_notes: Chemotaxis assay ITAC (CXCL11), L1.2-CXCR3 cells
Type: cell-based
Set-up: expressed in transfected cells
particulars: 1 nM CXCL11 (I-TAC), 4 hours
// IC50 lookup, one value per entry

| given_smiles | IC50 |
| --- | --- |
| COC(=O)[C@@H](Cc1ccccc1)NC(=O)c1ccc(CN(Cc2ccccn2)S(=O)(=O)c2ccc(Cl)cc2)cc1 | 400 nM |
| Cc1nc(CN(Cc2ccc(-c3nnn[nH]3)cc2)S(=O)(=O)c2ccc(Cl)cc2)cs1 | 130 nM |
| N#Cc1ccc(S(=O)(=O)N(Cc2ccc(C(=O)NCCc3cccc(Cl)c3)cc2)Cc2cccnc2)cc1 | 390 nM |
| CCOc1ccc(S(=O)(=O)N(Cc2ccc(C(=O)NC3(c4cccc(Cl)c4)CC3)cc2)Cc2ccccn2)cc1 | 160 nM |
